Biological target: Rabbit muscle SGP (Oryctolagus cuniculus)
Sequence (P13280 1-333): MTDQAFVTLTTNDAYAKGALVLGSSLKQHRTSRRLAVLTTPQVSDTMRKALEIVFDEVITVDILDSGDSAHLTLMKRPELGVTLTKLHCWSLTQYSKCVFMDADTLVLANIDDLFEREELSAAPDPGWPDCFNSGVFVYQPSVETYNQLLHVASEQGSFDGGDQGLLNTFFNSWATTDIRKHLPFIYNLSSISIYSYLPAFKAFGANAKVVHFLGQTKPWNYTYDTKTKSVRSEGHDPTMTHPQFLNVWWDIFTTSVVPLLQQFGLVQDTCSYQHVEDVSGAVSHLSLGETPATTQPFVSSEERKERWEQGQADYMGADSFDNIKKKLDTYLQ

>  <COMPOUND>
Nc1ncnc2c1ncn2[C@@H]1O[C@H](COP(=O)(O)OP(=O)(O)OP(=O)(O)O)[C@@H](O)[C@H]1O [ATP, adenosine triphosphate]

>  <IC50 [mM]>
3.5

$$$$
